Provenance of the data: patent EP0682022B1

assay: Solubility in water; format: physicochemical; details: at room temperature, read-out: Löslichkeit in Wasser
Readout name: solubility (mg/mL)
Give a bare numeral; the unit mg/mL is implied.

Which solubility value belongs to O=C(O)C(Nc1nc(NC(C(=O)O)n2cncn2)nc(NC(C(=O)O)n2cncn2)n1)n1cncn1 (stereo not shown) ?
50
